Every entry's value here was drawn from the Immune Epitope Database (IEDB).

- TARGET_ENTITY: HLA-A*02:01
- EXPERIMENTAL_PROTOCOL: IEDB peptide-MHC binding, purified MHC/direct/fluorescence; filed as Kd, often an IC50 or EC50 that approximates it; bounds were set here for any values at or beyond the usual limits of such assays
- ASSAY_CONDITIONS: source organism: Orthohantavirus andesense
pKd: −log10 of the molar value.
MEASUREMENT_LABEL: pKd

Task: Look up pKd with HLA-A*02:01 for this sequence: KLYEGDLRV
Result: ≥ 9.00

====

Entries annotated with measured Kd
- TARGET_ENTITY: HLA-A*11:01
- EXPERIMENTAL_PROTOCOL: IEDB peptide-MHC binding, purified MHC/direct/fluorescence; filed as Kd, often an IC50 or EC50 that approximates it; bounds were set here for any values at or beyond the usual limits of such assays
- ASSAY_CONDITIONS: source organism: Homo sapiens
Give the value, in units of µM, as a plain number.

ARLFGIRAK
4.24

Task: Item: ATDFKFAMY Test system: HLA-A*11:01 Read-out: Kd Value: ?
Result: 2.41

====

- TARGET_ENTITY: HLA-B*08:02
- EXPERIMENTAL_PROTOCOL: IEDB peptide-MHC binding, purified MHC/direct/fluorescence; filed as Kd, often an IC50 or EC50 that approximates it; bounds were set here for any values at or beyond the usual limits of such assays
- ASSAY_CONDITIONS: source organism: Burkholderia mallei ATCC 23344
MEASUREMENT_LABEL: Kd

Task: What reported Kd corresponds to RRSLLAHVR on HLA-B*08:02?
Result: ≥ 20 µM

====

- TARGET_ENTITY: HLA-A*30:01
- EXPERIMENTAL_PROTOCOL: IEDB peptide-MHC binding, purified MHC/competitive/radioactivity; filed as Kd, often an IC50 or EC50 that approximates it; bounds were set here for any values at or beyond the usual limits of such assays
- ASSAY_CONDITIONS: source organism: Mammarenavirus juninense
MEASUREMENT_LABEL: Kd

Task: Any idea what Kd was measured for LCLSGDGWPY ?
Result: ≥ 55.6 µM

====

- TARGET_ENTITY: HLA-A*11:01
- EXPERIMENTAL_PROTOCOL: IEDB peptide-MHC binding, purified MHC/direct/fluorescence; filed as Kd, often an IC50 or EC50 that approximates it; bounds were set here for any values at or beyond the usual limits of such assays
- ASSAY_CONDITIONS: source organism: Escherichia coli O157:H7
In this section we review reported Kd values for a set of sequences.
Give a bare numeral; the unit nM is implied.

GMLVGRLGK
191

Shifting focus to the sequence that follows.
Task: // lookup Kd for KLAETRMGY
Result: 932

====

- TARGET_ENTITY: HLA-A*32:01
- EXPERIMENTAL_PROTOCOL: IEDB peptide-MHC binding, purified MHC/competitive/radioactivity; filed as Kd, often an IC50 or EC50 that approximates it; bounds were set here for any values at or beyond the usual limits of such assays
- ASSAY_CONDITIONS: source organism: Dengue virus 4 Dominica/814669/1981
MEASUREMENT_LABEL: pKd
Note: pKd values are expressed as the negative base-10 logarithm of concentration in M.

Task: For RLENVMWKQI , what is its reported pKd?
Result: 5.74
